- tgt: T1, PDZD2_2, O15018
- T1 sequence (O15018 329-429, limits assumed, looked up): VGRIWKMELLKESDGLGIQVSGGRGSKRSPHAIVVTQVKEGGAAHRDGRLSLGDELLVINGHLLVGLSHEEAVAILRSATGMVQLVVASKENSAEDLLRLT
- procedure_text: holdup assay
- Parameters: key: below the threshold = too weak to quantify, mostly under pKd 3.1 to 4
- condition_parameters: plain residues with an end cap or a label only (N-terminal biotin on a linker: ttds)
If the reported pKd equals or exceeds 4, assign 1. If not, assign 0.

> print(dat)
                          binder  cat
1    PSRDRKETSI [RALBP1, Q15311]    0
2    QRPYRRESEI [KCNJ12, Q14500]    1
3    KLVIKTETTV [RASSF6, Q6ZTQ3]    0
4   NPDALPETLV [ARHGAP6, O43182]    1
5      SGGKRKETLV [NET1, Q7Z628]    1
6       KQVVPFSSSV [GDA, Q9Y2T3]    1
7  GRLLGLETNV [ARHGEF26, Q96DR7]    1
8      PFRSRSPSEV [GPR6, P46095]    0
9      FVETQHQTQV [FAT3, Q8TDW7]    1
